assay-target: GDP-loaded KRAS-G12C (Homo sapiens, UniProt P01116, G12C)
Sequence (P01116 1-188 isoform P01116-2 G12C): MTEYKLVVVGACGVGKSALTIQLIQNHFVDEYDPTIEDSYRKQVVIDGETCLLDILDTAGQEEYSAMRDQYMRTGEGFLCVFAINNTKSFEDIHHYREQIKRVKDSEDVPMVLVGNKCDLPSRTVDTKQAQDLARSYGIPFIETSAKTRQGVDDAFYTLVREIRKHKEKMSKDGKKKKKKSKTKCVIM
assay-remarks: KRAS (GDP) biochemical TR-FRET probe displacement assay, G12C
experimental-setup: 2 hours

{"columns": ["molecule", "IC50, nM"],
 "data": [
  ["C[C@H]1Cc2nc(-c3cc(O)cc4ccc(F)c(Cl)c34)c(F)c3nc(OCC45CCCN4CCC5)nc(c23)N2C[C@@]3(F)CC[C@](F)(N3)[C@H]12 [Example 4-30]", 0.194],
  ["C#Cc1c(F)ccc2cc(O)cc(-c3c(F)c4c5c(nc(OC[C@@]67CCCN6C[C@H](F)C7)nc5c3F)N3C[C@@]5(F)CC[C@H](N5)[C@H]3CC4)c12 [Example 4-41]", 0.386],
  ["Cc1c(F)c(N)cc(-c2nc3c4c(nc(OC[C@@]56CCCN5C[C@H](F)C6)nc4c2F)N2C[C@@]4(F)CC[C@](F)(N4)[C@H]2CCC3)c1C(F)(F)F [Example 4-4]", 46.7],
  ["C[C@H]1Cc2nc(-c3cc(N)cc4ccc(F)c(Cl)c34)c(F)c3nc(OCC45CCCN4CCC5)nc(c23)N2C[C@@]3(F)CC[C@](F)(N3)[C@H]12 [Example 5-3]", 1.55],
  ["C#Cc1c(F)ccc2cc(N)cc(-c3nc4c5c(nc(OC[C@@]67CCCN6[C@H](COC(C(F)(F)F)(C(F)(F)F)C(F)(F)F)CC7)nc5c3F)N3C[C@@]5(F)CC[C@](F)(N5)[C@H]3CCC4)c12 [Example 4-28]", 7.3],
  ["C/C=C\\c1c(Cl)cc2[nH]ncc2c1-c1nc2c3c(nc(OCC45CCCN4CCC5)nc3c1F)N1C[C@@]3(F)CC[C@](F)(N3)[C@H]1CCC2 [Example 4-26]", 1.24],
  ["Nc1cc(-c2nc3c4c(nc(OCC56CCCN5CCC6)nc4c2F)N2C[C@@]4(F)CC[C@](F)(N4)[C@H]2CCC3)c2c(OC(F)(F)F)c(F)ccc2c1 [Example 5-5]", 21.6],
  ["C[C@H]1Cc2nc(-c3cc(N)cc4ccc(F)c(F)c34)c(F)c3nc(OCC45CCCN4CCC5)nc(c23)N2C[C@@]3(F)CC[C@](F)(N3)[C@H]12 [Example 5-1]", 1.71],
  ["C#Cc1c(F)ccc2cccc(-c3nc4c5c(nc(OCC67CCCN6CCC7)nc5c3F)N3C[C@@]5(F)CC[C@](F)(N5)[C@H]3CCC4)c12 [Example 4-29]", 8.68],
  ["Cc1c(F)c(N)cc(-c2nc3c4c(nc(OCC56CCCN5CCC6)nc4c2F)N2C[C@@]4(F)CC[C@](F)(N4)[C@@H]2[C@@H](C)C3)c1C(F)(F)F [Example 4-13]", 3.81],
  ["N#Cc1c(N)sc2c(F)ccc(-c3nc4c5c(nc(OC[C@@]67CCCN6C[C@H](F)C7)nc5c3F)N3C[C@@]5(F)CC[C@](F)(N5)[C@@H]3CC4)c12 [Example 4-21]", 0.363]
]}

---

Listing of entries alongside the reported IC50.
assay-target: GDP-loaded KRAS-G12D (Homo sapiens, UniProt P01116, G12D)
Sequence (P01116 1-188 isoform P01116-2 G12D): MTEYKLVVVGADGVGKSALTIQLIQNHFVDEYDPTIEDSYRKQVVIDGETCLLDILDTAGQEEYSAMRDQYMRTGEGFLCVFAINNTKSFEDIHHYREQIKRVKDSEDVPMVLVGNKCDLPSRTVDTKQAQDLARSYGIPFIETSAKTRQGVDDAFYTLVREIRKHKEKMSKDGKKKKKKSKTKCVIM
assay-remarks: KRAS (GDP) biochemical TR-FRET probe displacement assay, G12D
experimental-setup: 2 hours
measurement-name: IC50

{"columns": ["compound", "assay-target", "measured"],
 "data": [
  ["Cc1c(F)c(N)cc(-c2nc3c4c(nc(OC[C@@]56CCCN5C[C@H](F)C6)nc4c2F)N2C[C@@]4(F)CC[C@](F)(N4)[C@H]2CCC3)c1C(F)(F)F [Example 4-4]", "GDP-loaded KRAS-G12D (Homo sapiens, UniProt P01116, G12D)", "> 100 nM"],
  ["C#Cc1c(F)ccc2cc(N)cc(-c3nc4c5c(nc(OC[C@@H]6CCCN6C)nc5c3F)N3C[C@@]5(F)CC[C@](F)(N5)[C@H]3CCC4)c12 [Example 4-8]", "GDP-loaded KRAS-G12D (Homo sapiens, UniProt P01116, G12D)", "57.8 nM"],
  ["C#Cc1c(F)ccc2cc(N)cc(-c3nc4c5c(nc(OC[C@@]67CCCN6[C@H](COC(C(F)(F)F)(C(F)(F)F)C(F)(F)F)CC7)nc5c3F)N3C[C@@]5(F)CC[C@](F)(N5)[C@@H]3[C@@H](C)C4)c12 [Example 4-36]", "GDP-loaded KRAS-G12D (Homo sapiens, UniProt P01116, G12D)", "> 100 nM"]
]}

---

Measured pIC50 on GDP-loaded wild-type KRAS (WT) (Homo sapiens) follows.
pIC50: −log10 of the molar value.

{"columns": ["compound", "pIC50"],
 "data": [
  ["C#Cc1c(F)ccc2cc(N)cc(-c3nc4c5c(nc(OC[C@@]67CCCN6[C@H](COC(C(F)(F)F)(C(F)(F)F)C(F)(F)F)CC7)nc5c3F)N3C[C@@]5(F)CC[C@](F)(N5)[C@H]3CCC4)c12", 8.30],
  ["C[C@H]1Cc2nc(-c3ccc(F)c4sc(N)c(C#N)c34)c(F)c3nc(OCC45CCCN4CCC5)nc(c23)N2C[C@@]3(F)CC[C@](F)(N3)[C@H]12", 9.49],
  ["C[C@H]1Cc2nc(-c3cc(N)cc4ccc(F)c(Cl)c34)c(F)c3nc(OCC45CCCN4CCC5)nc(c23)N2C[C@@]3(F)CC[C@](F)(N3)[C@H]12", 9.58],
  ["C[C@H]1Cc2nc(-c3cc(O)cc4ccc(F)c(F)c34)c(F)c3nc(OCC45CCCN4CCC5)nc(c23)N2C[C@@]3(F)CC[C@](F)(N3)[C@H]12", 10.07],
  ["Cc1c(F)c(N)cc(-c2nc3c4c(nc(OC[C@@]56CCCN5C[C@H](F)C6)nc4c2F)N2C[C@@]4(F)CC[C@](F)(N4)[C@H]2CCC3)c1C(F)(F)F", 7.59]
]}

---

assay-target: GDP-loaded wild-type KRAS (WT) (Homo sapiens, UniProt P01116)
Sequence (P01116 1-188 isoform P01116-2): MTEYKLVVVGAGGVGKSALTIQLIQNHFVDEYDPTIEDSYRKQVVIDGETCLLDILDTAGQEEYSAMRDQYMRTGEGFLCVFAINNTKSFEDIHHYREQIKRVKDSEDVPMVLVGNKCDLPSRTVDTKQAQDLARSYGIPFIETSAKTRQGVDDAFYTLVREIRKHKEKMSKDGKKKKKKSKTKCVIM
measurement-name: log10 of IC50 (log10 of the value in nM)

{"columns": ["compound", "log10 of IC50"],
 "data": [
  ["C#Cc1c(F)ccc2cc(N)cc(-c3nc4c5c(nc(OC[C@@H]6CCCN6C)nc5c3F)N3C[C@@]5(F)CC[C@](F)(N5)[C@H]3CCC4)c12 [Example 4-8]", 0.79],
  ["C[C@H]1Cc2nc(-c3cc(O)cc4ccc(F)c(Cl)c34)c(F)c3nc(OCC45CCCN4CCC5)nc(c23)N2C[C@@]3(F)CC[C@](F)(N3)[C@H]12 [Example 4-30]", -1.04],
  ["C#Cc1c(F)ccc2cc(O)cc(-c3c(F)c4c5c(nc(OC[C@@]67CCCN6C[C@H](F)C7)nc5c3F)N3C[C@@]5(F)CC[C@H](N5)[C@H]3CC4)c12 [Example 4-41]", -0.30],
  ["Cc1c(F)c(N)cc(-c2nc3c4c(nc(OCC56CCCN5CCC6)nc4c2F)N2C[C@@]4(F)CC[C@](F)(N4)[C@@H]2[C@@H](C)C3)c1C(F)(F)F [Example 4-13]", -0.39],
  ["C[C@H]1Cc2nc(-c3cc(N)cc(Cl)c3C(F)(F)F)c(F)c3nc(OCC45CCCN4CCC5)nc(c23)N2C[C@@]3(F)CC[C@](F)(N3)[C@H]12 [Example 4-17]", -0.79]
]}

---

assay-target: GDP-loaded KRAS-G12V (Homo sapiens, UniProt P01116, G12V)
Sequence (P01116 1-188 isoform P01116-2 G12V): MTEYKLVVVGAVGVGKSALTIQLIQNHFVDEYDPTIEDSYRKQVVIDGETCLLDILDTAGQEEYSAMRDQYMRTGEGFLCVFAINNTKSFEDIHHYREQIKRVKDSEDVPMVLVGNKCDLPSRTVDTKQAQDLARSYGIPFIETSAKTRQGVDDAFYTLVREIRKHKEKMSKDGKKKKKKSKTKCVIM
assay-remarks: KRAS (GDP) biochemical TR-FRET probe displacement assay, G12V
experimental-setup: 2 hours
Experimental: Compounds are tested for binding to GDP-loaded wild-type KRAS (WT), KRAS-G12C, KRAS-G12D, and KRAS-G12V in a 384-well assay format using a TR-FRET probe displacement assay in buffer consisting of 50 mM Hepes (pH 7.4), 150 mM NaCl, 5 mM MgCl2 and 0.005% Tween-20. […] Compounds are serially diluted (1:3) in DMSO. […] The plates are incubated at room temperature for 2 hours before measuring TR-FRET ratio (665 nm/615 nm) on the Envision multimode plate reader. […]
pIC50: −log10 of the molar value.
pIC50 below 9 gives false; pIC50 at or above it gives true.

{"columns": ["compound", "label-value"],
 "data": [
  ["C[C@H]1Cc2nc(-c3cc(O)cc4ccc(F)c(Cl)c34)c(F)c3nc(OCC45CCCN4CCC5)nc(c23)N2C[C@@]3(F)CC[C@](F)(N3)[C@H]12", "true"],
  ["C[C@H]1Cc2nc(-c3cc(N)cc4ccc(F)c(Cl)c34)c(F)c3nc(OCC45CCCN4CCC5)nc(c23)N2C[C@@]3(F)CC[C@](F)(N3)[C@H]12", "false"],
  ["C#Cc1c(F)ccc2cc(N)cc(-c3nc4c5c(nc(OC[C@@]67CCCN6[C@H](COC(C(F)(F)F)(C(F)(F)F)C(F)(F)F)CC7)nc5c3F)N3C[C@@]5(F)CC[C@](F)(N5)[C@@H]3[C@@H](C)C4)c12", "false"],
  ["Oc1cc(-c2nc3c4c(nc(OCC56CCCN5CCC6)nc4c2F)N2C[C@@]4(F)CC[C@](F)(N4)[C@H]2CCC3)c2c(OC(F)(F)F)c(F)ccc2c1", "false"],
  ["Cn1ccc2cc(N)cc(-c3nc4c5c(nc(OCC67CCCN6CCC7)nc5c3F)N3C[C@@]5(F)CC[C@](F)(N5)[C@H]3CCC4)c2c1=O", "false"],
  ["C/C=C\\c1c(Cl)cc2[nH]ncc2c1-c1nc2c3c(nc(OCC45CCCN4CCC5)nc3c1F)N1C[C@@]3(F)CC[C@](F)(N3)[C@H]1CCC2", "false"]
]}
